Where these numbers come from: ChEMBL document CHEMBL3244382

System: Mus musculus
test details: Toxicity in PS mouse allografted with mouse P388 cells assessed as survival at 25 ug/kg after 4 days
Assay type: organism-based
condition: in vivo, 0.025 mg/kg, 96 h
metric name: Activity

Solved entries (count: 4):
| compound | metric name | result |
| --- | --- | --- |
| C/C=C/C(=O)O[C@H]1CC(=O)N(C)c2cc(cc(OC)c2Cl)C/C(C)=C/C=C/[C@@H](OC)[C@@]2(O)C[C@H](OC(=O)N2)[C@@H](C)[C@@H]2O[C@@]12C | Activity | Non-toxic |
| COc1cc2cc(c1Cl)N(C)C(=O)C[C@H](OC(=O)CBr)[C@]1(C)O[C@H]1[C@H](C)[C@@H]1C[C@@](O)(NC(=O)O1)[C@H](OC)/C=C/C=C(\C)C2 | Activity | Non-toxic |
| COc1cc2cc(c1Cl)N(C)C(=O)CC(O)C1(C)OC1C(C)C1CC(O)(NC(=O)O1)C(OC)/C=C/C=C(\C)C2 (stereo not given) [MAYTANSINOL] | Activity | Non-toxic |
| CCC(=O)N(C)[C@@H](C)C(=O)O[C@H]1CC(=O)N(C)c2cc(cc(OC)c2Cl)C/C(C)=C/C=C/[C@@H](OC)[C@@]2(O)C[C@H](OC(=O)N2)[C@@H](C)[C@@H]2O[C@@]12C | Activity | Non-toxic |

Now for a further compound.
Input line: I have this compound here, COc1cc2cc(c1Cl)N(C)C(=O)C[C@H](OC(=O)C(C)C)[C@]1(C)O[C@H]1[C@H](C)[C@@H]1C[C@@](O)(NC(=O)O1)[C@H](OC)/C=C/C=C(\C)C2OC(C)=O (stereo not given in full) , and I need its recorded Activity.
Output line: Non-toxic
